We begin with a simple list: items and their reported EC50.
target: KiSS-1 receptor (Rattus norvegicus, UniProt Q924U1); assay: Agonist activity at rat KISS1R expressed in CHO/dhfr cells assessed as increase in intracellular Ca2+ levels measured for 180 secs by Fluo 3-AM dye based FLIPR assay
Sequence (Q924U1 whole entry): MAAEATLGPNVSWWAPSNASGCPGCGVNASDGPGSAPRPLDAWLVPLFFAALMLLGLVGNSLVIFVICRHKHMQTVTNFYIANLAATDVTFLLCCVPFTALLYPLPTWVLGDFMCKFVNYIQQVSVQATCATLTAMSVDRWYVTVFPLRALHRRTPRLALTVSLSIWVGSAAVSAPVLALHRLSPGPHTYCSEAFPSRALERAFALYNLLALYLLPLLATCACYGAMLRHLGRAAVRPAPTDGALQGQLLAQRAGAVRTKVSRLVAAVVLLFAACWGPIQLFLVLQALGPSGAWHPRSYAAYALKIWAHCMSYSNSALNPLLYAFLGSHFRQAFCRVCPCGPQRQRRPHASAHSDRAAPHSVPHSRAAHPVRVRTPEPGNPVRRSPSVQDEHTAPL
Where a SMILES comes first, the peptide text is derived from it. [ ]: non-standard residue; d: D form. Arg(Me) = CNC(=N)NCCC[C@H](N)C(=O)O; dNMeA = CN[C@H](C)C(=O)O; azaGly = NNC(=O)O
Entry rule: numbers only, all in nM.

Sample answers from the record:
- CNC(=N)NCCC[C@H](NC(=O)[C@H](CC(C)C)NC(=O)NNC(=O)[C@H](Cc1ccccc1)NC(=O)[C@@H](NC(=O)[C@H](CC(N)=O)NC(=O)[C@H](C)NC(=O)[C@@H](Cc1ccc(O)cc1)NC(C)=O)[C@@H](C)O)C(=O)N[C@@H](Cc1c[nH]c2ccccc12)C(N)=O: 6
- CNC(=N)NCCC[C@H](NC(=O)[C@H](CC(C)C)NC(=O)NNC(=O)[C@H](Cc1ccccc1)NC(=O)[C@@H](NC(=O)[C@H](CC(N)=O)NC(=O)[C@@H](C)N(C)C(=O)[C@@H](Cc1ccc(O)cc1)NC(C)=O)[C@@H](C)O)C(=O)N[C@@H](Cc1c[nH]c2ccccc12)C(N)=O (Ac-[dY][dNMeA]NTF[azaGly]L[Arg(Me)]W-NH2): 7.3

Now for the compound whose EC50 we want.
Entry CNC(=N)NCCC[C@H](NC(=O)[C@H](CC(C)C)NC(=O)NNC(=O)[C@H](Cc1ccccc1)NC(=O)[C@@H](NC(=O)[C@H](CC(N)=O)NC(=O)[C@H](Cc1c[nH]c2ccccc12)NC(=O)[C@@H](Cc1ccc(O)cc1)NC(C)=O)[C@@H](C)O)C(=O)N[C@@H](Cc1c[nH]c2ccccc12)C(N)=O has what EC50? 4.8

----------
molecular target: KiSS-1 receptor (Homo sapiens); test: Agonist activity at human KISS1R expressed in CHO/dhfr cells assessed as increase in intracellular Ca2+ levels measured for 180 secs by Fluo 3-AM dye based FLIPR assay; assay type: functional, cell-based
Sequence (Q969F8 whole entry): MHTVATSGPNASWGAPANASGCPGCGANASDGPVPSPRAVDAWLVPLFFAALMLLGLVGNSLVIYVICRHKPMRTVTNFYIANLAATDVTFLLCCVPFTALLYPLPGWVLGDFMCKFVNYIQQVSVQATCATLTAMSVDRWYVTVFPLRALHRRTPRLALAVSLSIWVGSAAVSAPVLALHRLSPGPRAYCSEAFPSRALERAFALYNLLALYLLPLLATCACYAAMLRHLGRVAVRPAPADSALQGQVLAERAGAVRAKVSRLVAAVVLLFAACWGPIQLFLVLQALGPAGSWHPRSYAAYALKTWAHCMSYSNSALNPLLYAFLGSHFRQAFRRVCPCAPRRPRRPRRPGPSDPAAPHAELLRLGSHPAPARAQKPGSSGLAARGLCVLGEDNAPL
Where a SMILES comes first, the peptide text is derived from it. [ ]: non-standard residue; d: D form. Phe(4-Cl) = N[C@@H](Cc1ccc(Cl)cc1)C(=O)O; Arg(Me) = CNC(=N)NCCC[C@H](N)C(=O)O; dNMeA = CN[C@H](C)C(=O)O; azaGly = NNC(=O)O
We begin with a simple list: items and their reported pEC50.
pEC50 field: float, defined as -log10 of concentration (mol/L).

- CNC(=N)NCCC[C@H](NC(=O)[C@H](CC(C)C)NC(=O)NNC(=O)[C@H](Cc1ccccc1)NC(=O)[C@@H](NC(=O)[C@H](CC(N)=O)NC(=O)[C@@H](C)N(C)C(=O)[C@@H](Cc1ccc(O)cc1)NC(C)=O)[C@@H](C)O)C(=O)N[C@@H](Cc1c[nH]c2ccccc12)C(N)=O (Ac-[dY][dNMeA]NTF[azaGly]L[Arg(Me)]W-NH2): 8.74
- CNC(=N)NCCC[C@H](NC(=O)[C@H](CC(C)C)NC(=O)NNC(=O)[C@H](Cc1ccccc1)NC(=O)[C@@H](NC(=O)[C@H](CC(N)=O)NC(=O)[C@H](CCCCN)NC(=O)[C@@H](Cc1ccc(O)cc1)NC(C)=O)[C@@H](C)O)C(=O)N[C@@H](Cc1c[nH]c2ccccc12)C(N)=O: 8.80

Now for the molecule whose pEC50 we want.
Entry CNC(=N)NCCC[C@H](NC(=O)[C@H](CC(C)C)NC(=O)NNC(=O)[C@H](Cc1ccc(Cl)cc1)NC(=O)[C@@H](NC(=O)[C@H](CC(N)=O)NC(=O)[C@@H](Cc1c[nH]c2ccccc12)NC(=O)[C@@H](Cc1ccc(O)cc1)NC(C)=O)[C@@H](C)O)C(=O)N[C@@H](Cc1c[nH]c2ccccc12)C(N)=O (Ac-[dY][dW]NT[Phe(4-Cl)][azaGly]L[Arg(Me)]W-NH2) has what pEC50? 9.25
